Tested on: UACC-257
Assay: NCI tumour cell line growth inhibition, 48 h
Calls of active or inactive are those of the source. No stated cut-off is given here; in the data, active = GI50 up to about 1.1 µM and inactive = higher.

{"COMPOUND": "COC(=O)C(=O)CC(=O)c1cccc(OC)c1", "GI50": "> 100 µM (inactive)"}
{"COMPOUND": "CSc1ccc(/C=C2\\CN(C)C/C(=C\\c3ccc(SC)cc3)C2=O)cc1", "GI50": "31.7 µM (inactive)"}
{"COMPOUND": "COc1ccc(CSc2ccccc2Cn2cccc2)cc1OC", "GI50": "27.8 µM (inactive)"}
{"COMPOUND": "O=C1OC(c2ccccc2)=N/C1=C/NC(Cc1ccc(O)cc1)C(=O)O (centres undefined)", "GI50": "73.5 µM (inactive)"}
{"COMPOUND": "CCOC(=O)c1c(Br)c(-c2ccc(OC)cc2)c(Br)n1C", "GI50": "23.2 µM (inactive)"}
{"COMPOUND": "O=c1oc2ccccc2c(O)c1C(C/C(CCN1CCCC1)=N/O)c1ccccc1 (centres undefined)", "GI50": "> 100 µM (inactive)"}
{"COMPOUND": "OC(c1ccccc1)C1CC2C=CC1C2 (centres undefined)", "GI50": "> 100 µM (inactive)"}
{"COMPOUND": "O=C(CC(=O)N1N=C(N2c3ccccc3Sc3ccccc32)CC1c1ccccc1)Nc1ccc(Cl)cc1 (centres undefined)", "GI50": "> 100 µM (inactive)"}
{"COMPOUND": "CCOP(=O)(Nc1ccc(-c2ccccc2)cc1)OCC", "GI50": "> 100 µM (inactive)"}
{"COMPOUND": "COc1ccc(OC)c2c(=S)c3ccccc3[nH]c12", "GI50": "> 73.8 µM (inactive)"}
{"COMPOUND": "CC(=O)C1=C(O)C(N)C2Cc3c(c(O)c4c(O)c(C)ccc4c3C)C(=O)C2(O)C1=O (centres undefined)", "GI50": "2.48 µM (inactive)"}
{"COMPOUND": "O=C(NCCCNCCNC(=O)c1cc(-c2ccccc2)nc2ccccc12)c1cc(-c2ccccc2)nc2ccccc12", "GI50": "1.67 µM (inactive)"}
{"COMPOUND": "CCCc1cc(COC)c(C#N)c(O)n1", "GI50": "> 100 µM (inactive)"}
{"COMPOUND": "Cc1nn(C(=O)c2ccccc2O)c2c1C(c1ccccc1)SC(=N)N2 (centres undefined)", "GI50": "2.01 µM (inactive)"}

----------
Test system: TK-10
Assay: NCI tumour cell line growth inhibition, 48 h
Calls of active or inactive are those of the source. Cut-off read from the data, not from the text of the source: active = GI50 up to about 1.1 µM and inactive = higher. Where a SMILES comes first, the peptide text is derived from it. The star is where a group is joined. Boc = CC(C)(C)OC(=O)*
Quick reference: GI50 of the listed items.

{"MOLECULE": "O=C(O)Cc1nc[nH]c1C(=O)O", "STUDY TARGET": "TK-10", "GI50": "> 100 µM (inactive)"}
{"MOLECULE": "C=CCC1(Sc2ccccn2)Sc2ccc3ccccc3c2-c2c(ccc3ccccc23)S1", "STUDY TARGET": "TK-10", "GI50": "> 100 µM (inactive)"}
{"MOLECULE": "N#Cc1c(N2CCCC2)ncn(-c2ccccc2)c1=O", "STUDY TARGET": "TK-10", "GI50": "> 100 µM (inactive)"}
{"MOLECULE": "C[C@@H](Oc1ccc(Oc2cnc3ccc(Cl)cc3n2)cc1)C(=O)O [R(+)XK469]", "STUDY TARGET": "TK-10", "GI50": "> 100 µM (inactive)"}
{"MOLECULE": "CS/C(=N\\c1ccc([N+](=O)[O-])cc1C#N)NC(=O)c1ccccc1", "STUDY TARGET": "TK-10", "GI50": "> 100 µM (inactive)"}
{"MOLECULE": "O=C1NC(=O)C2C(=O)NC(=O)C1C2Cc1ccco1 (centres undefined)", "STUDY TARGET": "TK-10", "GI50": "> 100 µM (inactive)"}
{"MOLECULE": "CC(Cl)(/C=C/Cl)C(Cl)/C=C/C(Cl)(CCl)CBr (centres undefined)", "STUDY TARGET": "TK-10", "GI50": "7.45 µM (inactive)"}
{"MOLECULE": "c1ccc(C2OCC(OC3CCCCO3)CO2)cc1 (centres undefined)", "STUDY TARGET": "TK-10", "GI50": "> 100 µM (inactive)"}
{"MOLECULE": "CCCCCCC(C)CC(CCCCCC)NCCOC(=O)c1ccc([N+](=O)[O-])cc1 (centres undefined)", "STUDY TARGET": "TK-10", "GI50": "12 µM (inactive)"}
{"MOLECULE": "CCOc1cc(/C=N/c2ccc(Oc3ccc(Cl)cc3)c(Cl)c2)ccc1O", "STUDY TARGET": "TK-10", "GI50": "43.1 µM (inactive)"}
{"MOLECULE": "Cc1cc(C)nc(NS(=O)(=O)c2ccc(NC(=O)c3cccc4c(Nc5ccc(S(=O)(=O)Nc6nc(C)cc(C)n6)cc5)c5ccccc5nc34)cc2)n1", "STUDY TARGET": "TK-10", "GI50": "27.2 µM (inactive)"}
{"MOLECULE": "O=C(/C(=C(/Br)I)c1ccccc1)c1ccccc1", "STUDY TARGET": "TK-10", "GI50": "27.2 µM (inactive)"}
{"MOLECULE": "Cc1cc(=O)oc2c(CNC(CO)C(=O)O)c(O)ccc12 (centres undefined)", "STUDY TARGET": "TK-10", "GI50": "80.9 µM (inactive)"}
{"MOLECULE": "COC(=O)C(Cc1c[nH]c2ccccc12)NC(=O)C(Cc1c[nH]c2ccccc12)NC(=O)C(Cc1c[nH]c2ccccc12)NC(=O)C(Cc1c[nH]c2ccccc12)NC(=O)C(Cc1c[nH]c2ccccc12)NC(=O)C(Cc1c[nH]c2ccccc12)NC(=O)C(Cc1c[nH]c2ccccc12)NC(=O)OC(C)(C)C (centres undefined) (Boc-WWWWWWW-OMe; configuration not given here)", "STUDY TARGET": "TK-10", "GI50": "43.6 µM (inactive)"}
{"MOLECULE": "CCOC(=O)C1=C(C)C2C3C(=O)OC(=O)C3C1(C)C1C(=O)OC(=O)C21 (centres undefined)", "STUDY TARGET": "TK-10", "GI50": "> 100 µM (inactive)"}
{"MOLECULE": "Nc1c(Cl)ncnc1NCCCNc1ncnc(Cl)c1N", "STUDY TARGET": "TK-10", "GI50": "> 100 µM (inactive)"}
{"MOLECULE": "CCOC(=O)c1cccc(/N=N/c2ncc(/C=C/C(=O)OC)[nH]2)c1", "STUDY TARGET": "TK-10", "GI50": "26.5 µM (inactive)"}
{"MOLECULE": "C#CC1(O)CC(c2ccccc2)N(C)C(c2ccccc2)C1 (centres undefined)", "STUDY TARGET": "TK-10", "GI50": "> 100 µM (inactive)"}
{"MOLECULE": "O=[N+]([O-])c1nccn1CC(O)CN1CC1 (centres undefined)", "STUDY TARGET": "TK-10", "GI50": "> 100 µM (inactive)"}
